Data credit: patent US20200131669A1

# test-name: Caco-2 membrane permeability, improved method as used in the following Examples (96-well, 20 to 24 h preincubation)
# Format: in vitro ADME
# experimental-context: human, Caco-2, Caco-2 (cm/sec)
Positions of bridges follow the written chain, without caps; N, C: chain ends. Non-standard residues stand in square brackets, D forms with d. Residues, ends and D or L forms follow the SMILES beside them. *: point of attachment. NMePhe(3-Cl) = CN[C@@H](Cc1cccc(Cl)c1)C(=O)O; Ala(4-thiazolyl) = N[C@@H](Cc1cscn1)C(=O)O; NMeF = CN[C@@H](Cc1ccccc1)C(=O)O; 4Pal = N[C@@H](Cc1ccncc1)C(=O)O; NMeL = CN[C@@H](CC(C)C)C(=O)O; Piperidide = C1CCN(*)CC1; Sar = CNCC(=O)O
test-readout: Papp A→B at 180 min (×10⁻⁶ cm/s)
Please state the figure in ×10⁻⁶ cm/s; there is no need to write the unit.

- compound: "CC(C)C[C@@H]1NC(=O)[C@H](CC(C)C)N(C)C(=O)[C@@H](CC(C)C)NC(=O)C[C@@H](C(=O)N2CCCCC2)NC(=O)[C@H](CC(C)C)N(C)C(=O)[C@H](Cc2cccc(Cl)c2)N(C)C(=O)[C@H](Cc2ccncc2)NC(=O)[C@H](CC(C)C)N(C)C(=O)CN(C)C(=O)[C@H]([C@@H](C)O)NC(=O)[C@H](CC(C)C)N(C)C1=O [pd172] ([dL][NMeL]L[NMeL]T[Sar][NMeL][4Pal][NMePhe(3-Cl)][NMeL]D-Piperidide; lactam N-11)"
  measured: 1.1

Switching to the query record.
Report Papp A→B at 180 min for CC(C)C[C@@H]1NC(=O)[C@H](CC(C)C)N(C)C(=O)[C@H](CC(C)C)N(C)C(=O)CNC(=O)[C@H](Cc2ccccc2)N(C)C(=O)[C@H](Cc2cscn2)NC(=O)[C@H](CC(C)C)N(C)C(=O)[C@H](Cc2ccccc2)NC(=O)[C@H](C)NC(=O)C[C@@H](C(=O)N(C)[C@@H](Cc2ccccc2)C(=O)N[C@@H](C)C(=O)N2CCCCC2)NC1=O [pd235] (AF[NMeL][Ala(4-thiazolyl)][NMeF]G[NMeL][NMeL]LD[NMeF]A-Piperidide; lactam N-10) 0.1
